Known pIC50 of a selection of molecules
assay-method-text: Antioxidant activity by the DPPH method
Assay type: biochemical
pIC50: −log10 of the molar value.

| molecule | pIC50 |
| --- | --- |
| O=C1O[C@H]([C@@H](O)CO)C(O)=C1O [Ascorbic acid, reference compound] | 6.00 |
| O=C(O)CC(=O)OC1C(OC(=O)/C=C/c2ccc(O)c(O)c2)CC(O)(C(=O)O)CC1OC(=O)/C=C/c1ccc(O)c(O)c1 (centres unmarked) | 5.42 |
